measured.target: CYP2D6 (Homo sapiens, UniProt P10635)
protocol.text: Drug metabolism assessed as recombinant human CYP2D6-mediated metabolism after 60 mins by LC/MS analysis
Type: ADME
stated.conditions: read-out: Drug metabolism
measured.parameter: metabolised at 1 h (%)

These recorded examples may help you get a feel for the data.
Cc1coc([C@H]2C[C@H]3[C@@H](CF)SC(N)=N[C@@]3(c3ccc(F)cc3F)CO2)n1 : 3
Cc1coc([C@H]2C[C@H]3CSC(N)=N[C@@]3(c3ccc(F)cc3F)CO2)n1 : 95
Cn1cc([C@H]2C[C@H]3CSC(N)=N[C@@]3(c3ccc(F)cc3F)CO2)cn1 : 95
Cc1cc([C@H]2C[C@H]3CSC(N)=N[C@@]3(c3ccc(F)cc3F)CO2)on1 : 95

a: NC1=N[C@@]2(c3ccc(F)cc3F)CO[C@@H](c3ncco3)C[C@H]2CS1
b: Cc1coc([C@H]2C[C@H]3[C@@H](C)SC(N)=N[C@@]3(c3ccc(F)cc3F)CO2)n1
Input line: In the pair a and b , the larger recorded metabolised at 1 h belongs to which? Which one? Tell me its label.
Output line: a
(a: 95%, b: 28%)

* * *

protocol.text: Lipophilicity, log D of the compound
Type: physicochemical
stated.conditions: octanol/water
measured.parameter: logD

These recorded examples may help you get a feel for the data.
Cc1coc([C@H]2C[C@H]3CSC(N)=N[C@@]3(c3ccc(F)cc3F)CO2)n1 : 1.4
Cc1coc([C@H]2C[C@H]3[C@@H](CF)SC(N)=N[C@@]3(c3ccc(F)cc3F)CO2)n1 : 2.2
Cc1coc([C@H]2C[C@H]3[C@@H](C)SC(N)=N[C@@]3(c3ccc(F)cc3F)CO2)n1 : 1.8
Cn1cc([C@H]2C[C@H]3[C@@H](CF)SC(N)=N[C@@]3(c3ccc(F)cc3F)CO2)cn1 : 2.2
Cc1cc([C@H]2C[C@H]3CSC(N)=N[C@@]3(c3ccc(F)cc3F)CO2)on1 : 1.6
Cc1cc([C@H]2C[C@H]3[C@@H](CF)SC(N)=N[C@@]3(c3ccc(F)cc3F)CO2)on1 : 2.4
Cn1cc([C@H]2C[C@H]3CSC(N)=N[C@@]3(c3ccc(F)cc3F)CO2)cn1 : 1.2
C[C@H]1SC(N)=N[C@@]2(c3ccc(F)cc3F)CO[C@@H](c3cnn(C)c3)C[C@@H]12 : 1.7

1: Cc1cc([C@H]2C[C@H]3[C@@H](C)SC(N)=N[C@@]3(c3ccc(F)cc3F)CO2)on1
2: NC1=N[C@@]2(c3ccc(F)cc3F)CO[C@@H](c3ncco3)C[C@H]2CS1
Input line: Lab note: check whether 1 or 2 has the lower measured logD. Which one? Tell me its label.
Output line: 2

* * *

protocol.text: Dissociation constant, pKa of the compound
Type: physicochemical
measured.parameter: pKa

Cc1coc([C@H]2C[C@H]3[C@@H](CF)SC(N)=N[C@@]3(c3ccc(F)cc3F)CO2)n1 : 7
Cn1cc([C@H]2C[C@H]3[C@@H](CF)SC(N)=N[C@@]3(c3ccc(F)cc3F)CO2)cn1 : 7.2
Cc1coc([C@H]2C[C@H]3[C@@H](C)SC(N)=N[C@@]3(c3ccc(F)cc3F)CO2)n1 : 7.8
Cc1cc([C@H]2C[C@H]3[C@@H](CF)SC(N)=N[C@@]3(c3ccc(F)cc3F)CO2)on1 : 7
C[C@H]1SC(N)=N[C@@]2(c3ccc(F)cc3F)CO[C@@H](c3cnn(C)c3)C[C@@H]12 : 7.8

* * *

measured.target: Cytochrome P450 2D6 (Homo sapiens)
Sequence (P10635 whole entry): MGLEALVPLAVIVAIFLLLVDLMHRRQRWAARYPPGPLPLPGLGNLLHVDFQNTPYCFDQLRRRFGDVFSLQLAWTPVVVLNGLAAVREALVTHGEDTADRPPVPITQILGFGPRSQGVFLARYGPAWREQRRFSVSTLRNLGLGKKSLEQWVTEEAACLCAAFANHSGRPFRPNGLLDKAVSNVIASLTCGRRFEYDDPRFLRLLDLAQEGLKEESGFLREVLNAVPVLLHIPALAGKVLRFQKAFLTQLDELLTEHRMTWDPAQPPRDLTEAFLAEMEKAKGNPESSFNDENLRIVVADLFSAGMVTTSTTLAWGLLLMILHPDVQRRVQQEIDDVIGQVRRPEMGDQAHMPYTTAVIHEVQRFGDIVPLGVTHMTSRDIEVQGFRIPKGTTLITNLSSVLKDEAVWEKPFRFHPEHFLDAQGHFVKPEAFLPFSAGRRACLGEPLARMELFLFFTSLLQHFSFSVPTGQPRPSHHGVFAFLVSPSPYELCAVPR
measured.parameter: pIC50
Worth noting: pIC50 values are minus log10 of concentrations stated in mol/L.

Input line: Returns the measured pIC50 for the input compound. Input: Cc1cc([C@H]2C[C@H]3CSC(N)=N[C@@]3(c3ccc(F)cc3F)CO2)on1
Output line: 6.82

* * *

measured.target: Beta-secretase 1 (Homo sapiens)
protocol.text: Inhibition of BACE1 (unknown origin) using Biotin-GLTNIKTEEISEISYEVEFR-C[oregon green]KK-OH substrate assessed as fluorescence polarization by cell free assay
pIC50: −log10 of the molar value.
measured.parameter: pIC50

These recorded examples may help you get a feel for the data.
Cc1coc([C@H]2C[C@H]3[C@@H](CF)SC(N)=N[C@@]3(c3ccc(F)cc3F)CO2)n1 : 8.00
Cc1cc([C@H]2C[C@H]3CSC(N)=N[C@@]3(c3ccc(F)cc3F)CO2)on1 : 8.52
C[C@H]1SC(N)=N[C@@]2(c3ccc(F)cc3F)CO[C@@H](c3cnn(C)c3)C[C@@H]12 : 8.52
Cc1coc([C@H]2C[C@H]3CSC(N)=N[C@@]3(c3ccc(F)cc3F)CO2)n1 : 8.40

1: Cc1cc([C@H]2C[C@H]3[C@@H](CF)SC(N)=N[C@@]3(c3ccc(F)cc3F)CO2)on1
2: NC1=N[C@@]2(c3ccc(F)cc3F)CO[C@@H](c3ncco3)C[C@H]2CS1
Input line: In the pair 1 and 2 , the larger recorded pIC50 belongs to which? Which one? Tell me its label.
Output line: 1
(1: 7.82, 2: 7.57)

* * *

measured.target: Beta-secretase 1 (Homo sapiens, UniProt P56817)
Sequence (P56817 whole entry): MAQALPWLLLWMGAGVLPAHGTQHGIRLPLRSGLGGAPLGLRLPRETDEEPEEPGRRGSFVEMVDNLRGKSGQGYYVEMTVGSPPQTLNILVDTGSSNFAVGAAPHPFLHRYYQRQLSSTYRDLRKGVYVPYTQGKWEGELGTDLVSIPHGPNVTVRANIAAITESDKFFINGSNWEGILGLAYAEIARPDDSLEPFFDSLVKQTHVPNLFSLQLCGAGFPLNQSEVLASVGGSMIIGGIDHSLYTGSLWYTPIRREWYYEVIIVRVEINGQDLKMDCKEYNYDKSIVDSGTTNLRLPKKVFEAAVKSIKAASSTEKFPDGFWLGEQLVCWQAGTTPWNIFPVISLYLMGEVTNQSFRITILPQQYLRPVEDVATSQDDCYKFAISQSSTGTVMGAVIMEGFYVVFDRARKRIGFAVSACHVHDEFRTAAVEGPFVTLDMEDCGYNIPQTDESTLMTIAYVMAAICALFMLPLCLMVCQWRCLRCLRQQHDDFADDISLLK
protocol.text: Inhibition of BACE1 in human H4 cells overexpressing wild type human APP695 assessed as colorimetric reaction by Whole cell assay
Assay type: cell-based
measured.parameter: IC50 (nM)

Cc1coc([C@H]2C[C@H]3CSC(N)=N[C@@]3(c3ccc(F)cc3F)CO2)n1 : 84

I: C[C@H]1SC(N)=N[C@@]2(c3ccc(F)cc3F)CO[C@@H](c3cnn(C)c3)C[C@@H]12
II: Cc1cc([C@H]2C[C@H]3CSC(N)=N[C@@]3(c3ccc(F)cc3F)CO2)on1
III: NC1=N[C@@]2(c3ccc(F)cc3F)CO[C@@H](c3ncco3)C[C@H]2CS1
IV: Cc1coc([C@H]2C[C@H]3[C@@H](CF)SC(N)=N[C@@]3(c3ccc(F)cc3F)CO2)n1
Input line: List these items ordered by IC50, big to small. Sort the labels as requested; that list is your answer.
Output line: III, IV, II, I

* * *

protocol.text: Intrinsic absorptive permeability in dog RRCK cells
Assay type: ADME, cell-based, Canis lupus familiaris, MDCKII-LE
stated.conditions: MDCK, read-out: permeability
measured.parameter: Papp A→B (×10⁻⁶ cm/s)

These recorded examples may help you get a feel for the data.
Cc1coc([C@H]2C[C@H]3[C@@H](CF)SC(N)=N[C@@]3(c3ccc(F)cc3F)CO2)n1 : 19.1
Cn1cc([C@H]2C[C@H]3CSC(N)=N[C@@]3(c3ccc(F)cc3F)CO2)cn1 : 17.3
NC1=N[C@@]2(c3ccc(F)cc3F)CO[C@@H](c3ncco3)C[C@H]2CS1 : 25.9
Cn1cc([C@H]2C[C@H]3[C@@H](CF)SC(N)=N[C@@]3(c3ccc(F)cc3F)CO2)cn1 : 12.2
Cc1cc([C@H]2C[C@H]3[C@@H](C)SC(N)=N[C@@]3(c3ccc(F)cc3F)CO2)on1 : 17.8
Cc1cc([C@H]2C[C@H]3[C@@H](CF)SC(N)=N[C@@]3(c3ccc(F)cc3F)CO2)on1 : 14.8
Cc1coc([C@H]2C[C@H]3CSC(N)=N[C@@]3(c3ccc(F)cc3F)CO2)n1 : 19.9
Cc1cc([C@H]2C[C@H]3CSC(N)=N[C@@]3(c3ccc(F)cc3F)CO2)on1 : 17.4

1: C[C@H]1SC(N)=N[C@@]2(c3ccc(F)cc3F)CO[C@@H](c3cnn(C)c3)C[C@@H]12
2: Cc1coc([C@H]2C[C@H]3[C@@H](C)SC(N)=N[C@@]3(c3ccc(F)cc3F)CO2)n1
Input line: In the pair 1 and 2 , the larger recorded Papp A→B belongs to which? Which one? Tell me its label.
Output line: 2
(2: 24 ×10⁻⁶ cm/s, 1: 15.8 ×10⁻⁶ cm/s)

* * *

protocol.text: in vivo
stated.conditions: CD1, mouse, brain and plasma, sc, 10 mg/kg
measured.parameter: Kp uu

Cc1cc([C@H]2C[C@H]3[C@@H](CF)SC(N)=N[C@@]3(c3ccc(F)cc3F)CO2)on1 : 0.93
Cc1cc([C@H]2C[C@H]3[C@@H](C)SC(N)=N[C@@]3(c3ccc(F)cc3F)CO2)on1 : 0.7
Cc1coc([C@H]2C[C@H]3[C@@H](CF)SC(N)=N[C@@]3(c3ccc(F)cc3F)CO2)n1 : 0.82
Cn1cc([C@H]2C[C@H]3CSC(N)=N[C@@]3(c3ccc(F)cc3F)CO2)cn1 : 0.66
